Give measured self-cleavage for each item. Keep answers brief.
B1: LINE1-full (parent)
chain: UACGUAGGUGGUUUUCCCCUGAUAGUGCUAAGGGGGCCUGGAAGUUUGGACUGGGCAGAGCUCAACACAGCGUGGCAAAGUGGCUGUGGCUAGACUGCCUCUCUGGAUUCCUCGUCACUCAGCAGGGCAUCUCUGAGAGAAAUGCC

variants of: B1; assay: self-cleavage, relative activity (ratio to wild type); higher = more cleavage; in vitro, sequencing; the parent is a self-cleaving ribozyme
Give bare numbers.

Solved entries:
UACGUAGGUGGUUUUCCCCUGAUAGUGCUAAGGGGGCCUGGAAGUUUGGACUGGGCAGAGCUCAACACAGCGUGGCAAAGUGGCUGUCGCUAGACUGCCUCUCUGGAUUCCUCGUCACUCAGCAGGGCAUCUCUGAGAGAAAUGCC [G88C] | 0.11
UACGUAGGUGGUAUUCCCCUGAUAGUGCUAAGGGGGCCUGGAAGUUUGGACUGGGCAGAGCUCAACACAGCGUGGCAAAGUGGCUGUGGCUAGACUGCCUCUCUGGGUUCCUCGUCACUCAGCAGGGCAUCUCUGAGAGAAAUGCC [U13A A107G] | 1.11
UACGUAGGUGGUUUUCCCCUGAUAGUGCUAAGGGGACAUGGAAGUUUGGACUGGGCAGAGCUCAACACAGCGUGGCAAAGUGGCUGUGGCUAGACUGCCUCUCUGGAUUCCUCGUCACUCAGCAGGGCAUCUCUGAGAGAAAUGCC [G36A C38A] | 1.18
UACGUAUGUGGUUUUCCCCUGAUAGUGCUGAGGGGGCCUGGAAGUUUGGACUGGGCAGAGCUCAACACAGCGUGGCAAAGUGGCUGUGGCUAGACUGCCUCUCUGGAUUCCUCGUCACUCAGCAGGGCAUCUCUGAGAGAAAUGCC [G7U A30G] | 0.78
UACGUAGGUGGUUUUCCCCUGAUAGUGCUAAGGGGGCCUGGAAGUUUGGACUGGGCUGAGCUCAGCACAGCGUGGCAAAGUGGCUGUGGCUAGACUGCCUCUCUGGAUUCCUCGUCACUCAGCAGGGCAUCUCUGAGAGAAAUGCC [A57U A65G] | 0.07

The following variants each have a reported value; give each one's self-cleavage.
1. UACGUAGGUGGUUUUCCCCUGAUAGUGCUAAGGGGGCCUGGAAGUUAGGACUGGGCAGAGCUCAACACAGCGUGGCAAAGUGGCUGUGGCUAGGCUGCCUCUCUGGAUUCCUCGUCACUCAGCAGGGCAUCUCUGAGAGAAAUGCC [U47A A94G]
2. UACGUAGGCGGAUUUCCCCUGAUAGUGCUAAGGGGGCCUGGAAGUUUGGACUGGGCAGAGCUCAACACAGCGUGGCAAAGUGGCUGUGGCUAGACUGCCUCUCUGGAUUCCUCGUCACUCAGCAGGGCAUCUCUGAGAGAAAUGCC [U9C U12A]
3. UACGUAGGUGGUUUUCCCCUGAUAGUGCUAAGGGGGCCUGGAAGUUUGGACUGGGCAGAGCUCAACACAGCGGGGCAAAGUGGCUGUGGCUAGACUGCCUCUCCGGAUUCCUCGUCACUCAGCAGGGCAUCUCUGAGAGAAAUGCC [U73G U104C]
4. UACGUAGGUGGUUUUCCCCUGAUAGUGCUAAGGGGGCCUGGAUGUUUGGACUGGGCAGAGCUCAACACAGCGUGGCAAAGUGGCUGUGGCUAGACUGCCUCUCUGGAUUCCUCGUUACUCAGCAGGGCAUCUCUGAGAGAAAUGCC [A43U C116U]
5. UACGUAGGUGGUUUUCCCCUGAUAGUGCUAAGGGGGCCUGGAAGUCUGGACUGGGCAGAGCUCAACACAGCGUGGCAAAGUGGCUGUGGCUAGACUGCCUCUCCGGAUUCCUCGUCACUCAGCAGGGCAUCUCUGAGAGAAAUGCC [U46C U104C]

1: 0.23; 2: 1.51; 3: 2; 4: 1.12; 5: 1.96

Fill in self-cleavage for each of the 4 variants listed.
1. UAUGUAGGUGGUUUUCCCCUGAUAGUGCUAAGGGGGCCUGGAAGUUUGGACCGGGCAGAGCUCAACACAGCGUGGCAAAGUGGCUGUGGCUAGACUGCCUCUCUGGAUUCCUCGUCACUCAGCAGGGCAUCUCUGAGAGAAAUGCC [C3U U52C]
2. UAUGUAGGUGGUUUUCCCCUGAUAGUGCUAAGGGGGCCUGGAAGAUUGGACUGGGCAGAGCUCAACACAGCGUGGCAAAGUGGCUGUGGCUAGACUGCCUCUCUGGAUUCCUCGUCACUCAGCAGGGCAUCUCUGAGAGAAAUGCC [C3U U45A]
3. UACGUAGGUGGUUUUCCCCUGAUAGUGCUAAGGGGGCCUGGAAGUUUGGACUGGGCAGAGCUCAACACAGCGUGGCAAAGUGGCCGUGGCUAGGCUGCCUCUCUGGAUUCCUCGUCACUCAGCAGGGCAUCUCUGAGAGAAAUGCC [U85C A94G]
4. AACGUAGGAGGUUUUCCCCUGAUAGUGCUAAGGGGGCCUGGAAGUUUGGACUGGGCAGAGCUCAACACAGCGUGGCAAAGUGGCUGUGGCUAGACUGCCUCUCUGGAUUCCUCGUCACUCAGCAGGGCAUCUCUGAGAGAAAUGCC [U1A U9A]

[1.31, 0.93, 0.07, 1.15]

Give one value of self-cleavage per listed variant.
1. UACGUAGGUGGUUUUCCCCUGAUAGUGCUAAGGGGGCCUGGAAGUUUGGACUGGGCAGAGCCCAACACAGCGUGGCAAAGUGGCUGUGGCUAGACUGCCUCUCUGGAUUCCUCGUCGCUCAGCAGGGCAUCUCUGAGAGAAAUGCC [U62C A117G]
2. UACGUAGGUGGUUUUCCCCUGAUAGUGCUAAGGGGGCCUGGAAGUUUGGACUGGGCAGAGCUCAACACAGCGUGGCAAAGUGGCUGUGGCUAGACUGCCUUUCUGGAUUCCUCGCCACUCAGCAGGGCAUCUCUGAGAGAAAUGCC [C101U U115C]
3. UACGUAGGUGGUUUUCCCCUGAUAGUGCUAAGGGGGCCUGGAAGAUUGGACUGGGCAGAGCUCAACACAGCGUGGCAAAGUGGCUGUGGCUAGACUGCCUCUCUGGAUUCCUCGUCACUCAGCAGGGCAUCUCUGAGAGGAAUGCC [U45A A140G]
4. CACGUAGGUGGUUUUCCCCUGAUAGUGCUAAGGGGGCCUGGAAGUUUGGACUGGGCAGAGCUCAACACAGCGUGGCAAAGUGGCUGUGGCUAGACUGCCUCUCUGGAUUCCUCGUCACUCAGCAGGGCAUCCCUGAGAGAAAUGCC [U1C U132C]
5. UACGUAGGUGGUUAUCCCCUGAUAGUGCUAAGGGGGCCUGGAAGUUUGGACUGGGCAGAGCUCAACACAGCGUGGCAAAGUGGCUGUGGCUAGACUGCCUCUCUGGAUUCCUCGUCACUCAGCAGGGCAUCUCUGAGAGAAACGCC [U14A U143C]
6. UACGUAGGUGGUUUUCCCCUGAUAGUGCUAAGGGGGCCUUGAAGUUUGGACUGGGCAGCGCUCAACACAGCGUGGCAAAGUGGCUGUGGCUAGACUGCCUCUCUGGAUUCCUCGUCACUCAGCAGGGCAUCUCUGAGAGAAAUGCC [G40U A59C]

0.1
1.49
1.32
0.97
1
0.82

Provide each entry's self-cleavage from the list below.
1. UACGUAGGUGGUUUUCCCCUGAUAGUGCUAAGGGGGCUUGGAAGUUUGGACUGGGCAGAGCUCAACGCAGCGUGGCAAAGUGGCUGUGGCUAGACUGCCUCUCUGGAUUCCUCGUCACUCAGCAGGGCAUCUCUGAGAGAAAUGCC [C38U A67G]
2. UACGUAGGUGGUUUUCCCCUGAUAGUGCUAAGGGGGCCUGGAUGUUUGGACUGGGCGGAGCUCAACACAGCGUGGCAAAGUGGCUGUGGCUAGACUGCCUCUCUGGAUUCCUCGUCACUCAGCAGGGCAUCUCUGAGAGAAAUGCC [A43U A57G]

1: 0.42; 2: 0.89
